# ASSAYED_TARGET: KRAS WT (Homo sapiens, UniProt P01116+P62937)
# Sequence (P01116 1-169 isoform P01116-2 limits assumed): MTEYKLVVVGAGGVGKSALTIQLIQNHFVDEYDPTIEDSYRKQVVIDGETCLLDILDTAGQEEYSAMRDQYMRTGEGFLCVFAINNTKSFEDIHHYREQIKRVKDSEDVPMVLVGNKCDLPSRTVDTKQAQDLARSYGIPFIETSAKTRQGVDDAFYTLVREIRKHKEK
# Sequence (P62937 whole entry): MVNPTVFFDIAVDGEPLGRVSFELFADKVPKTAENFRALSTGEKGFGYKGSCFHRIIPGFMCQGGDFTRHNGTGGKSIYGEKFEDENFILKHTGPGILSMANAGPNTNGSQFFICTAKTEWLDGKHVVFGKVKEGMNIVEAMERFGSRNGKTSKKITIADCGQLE
# TEST_SUMMARY: Disruption of BRAF RBD interaction with Ras (FRET / MOA assay, with Cyclophilin A)
# Assay type: biochemical
# CONDITION_CONTEXT: KRAS WT; read-out: KRAS WT FRET data IC50
Recorded measurements of IC50, one per entry

Worked examples, 3 compounds total:
>  <COMPOUND>
CCn1c(-c2cccnc2[C@H](C)OC)c2c3cc(ccc31)-c1cc(O)cc(c1)C[C@H](NC(=O)[C@H](C(C)C)N(C)C(=O)C1CC13CCNC3)C(=O)N1CCC[C@H](N1)C(=O)OCC(C)(C)C2 (some centres unmarked)

>  <READOUT_VALUE>
10 to 100 nM

$$$$
>  <COMPOUND>
CCn1c(-c2cccnc2COC)c2c3cc(ccc31)-c1cc(O)cc(c1)C[C@H](NC(=O)[C@@H](C(C)C)N(C)C(=O)[C@H]1CCN(C(=O)C#CC(C)N3CCOCC3)C1)C(=O)N1CCC[C@H](N1)C(=O)OCC(C)(C)C2 (some centres unmarked)

>  <READOUT_VALUE>
> 10000 nM

$$$$
>  <COMPOUND>
CCn1c(-c2cccnc2[C@H](C)OC)c2c3cc(ccc31)-c1csc(n1)C[C@H](NC(=O)[C@H](C(C)C)N(C)C(=O)N1CC[C@]3(CCN(C)C3=O)C1)C(=O)N1CCC[C@H](N1)C(=O)OCC(C)(C)C2 (single isomer, unassigned)

>  <READOUT_VALUE>
100 to 1000 nM

$$$$

`CCn1c(-c2cccnc2[C@H](C)OC)c2c3cc(ccc31)-c1cccc(c1)C[C@H](NC(=O)[C@H](C(C)C)N(C)C(=O)[C@H]1CCN(C(C)=O)C1)C(=O)N1CCC[C@H](N1)C(=O)OCC(C)(C)C2` has a reported IC50 of 1000 to 10000 nM

`CCn1c(-c2cccnc2[C@H](C)OC)c2c3cc(ccc31)N1CCO[C@@H](C[C@H](NC(=O)[C@H](C(C)C)N(C)C(=O)[C@@]3(F)CCN(C(=O)C#CC(C)(C)N4CCC4)C3)C(=O)N3CCC[C@H](N3)C(=O)OCC(C)(C)C2)C1` has a reported IC50 of 1000 to 10000 nM

`CCn1c(-c2cccnc2[C@H](C)OC)c2c3cc(ccc31)-c1csc(n1)C[C@H](NC(=O)[C@H](C(C)C)N(C)C(=O)O[C@H]1CCOC1)C(=O)N1CCC[C@H](N1)C(=O)OCC(C)(C)C2` has a reported IC50 of 100 to 1000 nM

CCn1c(-c2cccnc2[C@H](C)OC)c2c3cc(ccc31)-c1cc(O)cc(c1)C[C@H](NC(=O)[C@H](C(C)C)N(C)C(=O)C1CC13CC3)C(=O)N1CCC[C@H](N1)C(=O)OCC(C)(C)C2 (some centres unmarked) has a reported IC50 of 10 to 100 nM

`C=CC(=O)N1CC[C@H](C(=O)N(C)[C@H](C(=O)N[C@H]2Cc3cc(O)cc(c3)-c3ccc4c(c3)c(c(-c3ccnc5c3[C@@H](OC)CC5)n4CC)CC(C)(C)COC(=O)[C@@H]3CCCN(N3)C2=O)C(C)C)C1` has a reported IC50 of 100 to 1000 nM
